Reference for the values: the supplement of paper PMC6555819

Test system: VDR:RXRa (NR concentration 270 nM, RXRa partner concentration 90 nM)
procedureSummary: PBM binding z-score (relative to random genomic background probes); higher = stronger binding; sequences stand for … in GC…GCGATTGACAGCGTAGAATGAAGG
Lab note: anything with PBM binding z-score at or over 4 counts as rule met; the rest go in rule not met.

Use these answered entries as a reference point.
chainSequence	categoryLabel
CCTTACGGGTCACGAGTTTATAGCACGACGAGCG	rule met
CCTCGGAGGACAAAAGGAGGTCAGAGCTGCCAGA	rule not met
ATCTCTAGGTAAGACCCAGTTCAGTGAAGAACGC	rule not met
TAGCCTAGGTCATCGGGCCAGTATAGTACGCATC	rule not met
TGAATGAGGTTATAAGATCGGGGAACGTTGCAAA	rule not met
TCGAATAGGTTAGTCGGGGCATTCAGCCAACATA	rule not met

Data request: Reported PBM binding z-score reaches at least 4 for `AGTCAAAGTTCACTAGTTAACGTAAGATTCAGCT` ?
Data returned: rule not met

Data request: Item `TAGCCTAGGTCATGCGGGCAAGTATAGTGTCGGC` with PBM binding z-score of 4 or above?
Data returned: rule not met

Data request: Assess whether reported PBM binding z-score for `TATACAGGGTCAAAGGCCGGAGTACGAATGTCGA` sits at 4 or higher.
Data returned: rule met

Data request: Does PBM binding z-score meet or surpass 4 for `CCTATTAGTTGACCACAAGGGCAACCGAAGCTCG` ?
Data returned: rule not met

Data request: # bool: PBM binding z-score of `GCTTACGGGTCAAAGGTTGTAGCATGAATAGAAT` >= 4
Data returned: rule met

Data request: Is PBM binding z-score for `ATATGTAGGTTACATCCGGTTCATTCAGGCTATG` at or above 4?
Data returned: rule met

Data request: Hello, I need to know if `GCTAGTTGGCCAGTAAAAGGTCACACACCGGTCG` has measured PBM binding z-score not below 4. Thanks!
Data returned: rule not met

Data request: Determine whether measured PBM binding z-score meets or exceeds 4 for `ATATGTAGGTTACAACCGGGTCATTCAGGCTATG`
Data returned: rule met

Data request: Evaluate `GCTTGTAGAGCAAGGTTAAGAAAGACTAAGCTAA` : PBM binding z-score at minimum 4?
Data returned: rule not met

Data request: Check the entry `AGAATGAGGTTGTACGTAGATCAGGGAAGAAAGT` : does PBM binding z-score equal or exceed 4?
Data returned: rule not met

###

Tested on: THRa homodimer (NR concentration 90 nM)
procedureSummary: PBM binding z-score (relative to random genomic background probes); higher = stronger binding; sequences stand for … in GC…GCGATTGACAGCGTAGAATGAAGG
Parameter class (string): assigned from measured PBM binding z-score. Ranges: one = under 0.08, two = from 0.08 up to 0.7, three = 0.7 and over

Field: example entries. Status: answers known.
chainSequence	categoryLabel
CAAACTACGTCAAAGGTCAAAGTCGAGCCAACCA	three
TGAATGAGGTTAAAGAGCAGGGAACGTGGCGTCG	two
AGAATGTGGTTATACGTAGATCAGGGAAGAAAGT	one
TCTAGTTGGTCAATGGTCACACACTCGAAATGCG	two
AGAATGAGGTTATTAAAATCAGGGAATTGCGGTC	two
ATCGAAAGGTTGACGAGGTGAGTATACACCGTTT	three
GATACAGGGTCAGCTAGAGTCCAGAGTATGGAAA	two
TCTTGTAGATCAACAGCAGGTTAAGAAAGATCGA	one
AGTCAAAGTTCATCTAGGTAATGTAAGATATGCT	two
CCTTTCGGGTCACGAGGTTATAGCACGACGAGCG	three

Here is another sequence to look at.
Data request: # bin label for `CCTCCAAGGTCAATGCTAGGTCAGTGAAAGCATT`
Data returned: three

###

Documented PBM binding z-score across a set of sequences
Tested on: LXRa:RXRa (NR concentration 270 nM, RXRa partner concentration 90 nM)
procedureSummary: PBM binding z-score (relative to random genomic background probes); higher = stronger binding; sequences stand for … in GC…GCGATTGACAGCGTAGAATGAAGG
Kindly provide the number alone.

chainSequence	observedProperty	measuredResult
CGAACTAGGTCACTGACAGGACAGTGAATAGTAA	PBM binding z-score	2.26
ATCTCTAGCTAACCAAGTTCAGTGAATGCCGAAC	PBM binding z-score	0.353
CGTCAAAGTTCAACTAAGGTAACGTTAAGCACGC	PBM binding z-score	6.43

The sequence listed as `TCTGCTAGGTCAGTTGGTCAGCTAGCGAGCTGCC` has a reported PBM binding z-score of 0.628

The reported value for `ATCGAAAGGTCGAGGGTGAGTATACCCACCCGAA` in terms of PBM binding z-score is 3.45

response.value for `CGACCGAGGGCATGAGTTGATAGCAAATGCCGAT` (field: PBM binding z-score) = 0.28

###

Tested on: RARa homodimer (NR concentration 270 nM)
procedureSummary: PBM binding z-score (relative to random genomic background probes); higher = stronger binding; sequences stand for … in GC…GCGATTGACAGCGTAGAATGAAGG
Please enter MET where PBM binding z-score is greater than or equal to -0.3, and NOT MET where it is lower.

Would you please look over these solved cases?
chainSequence	categoryLabel
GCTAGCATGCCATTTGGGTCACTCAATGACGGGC	NOT MET
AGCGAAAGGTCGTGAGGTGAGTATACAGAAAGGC	MET
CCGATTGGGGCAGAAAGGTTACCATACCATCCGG	NOT MET
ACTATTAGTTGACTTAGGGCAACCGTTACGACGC	MET

Data request: Could you tell me if the measured PBM binding z-score of `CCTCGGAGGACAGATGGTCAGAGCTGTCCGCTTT` reaches -0.3 or more?
Data returned: NOT MET

###

System: RARg:RXRa (NR concentration 270 nM, RXRa partner concentration 90 nM)
procedureSummary: PBM binding z-score (relative to random genomic background probes); higher = stronger binding; sequences stand for … in GC…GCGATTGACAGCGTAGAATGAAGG
PBM binding z-score values for the sequences below.
Format: numeric value only, no unit, no commentary.

chainSequence	measurementTarget	observedProperty	measuredResult
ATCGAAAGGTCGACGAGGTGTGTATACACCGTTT	RARg:RXRa (NR concentration 270 nM, RXRa partner concentration 90 nM)	PBM binding z-score	4.07
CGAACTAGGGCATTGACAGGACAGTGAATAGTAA	RARg:RXRa (NR concentration 270 nM, RXRa partner concentration 90 nM)	PBM binding z-score	1.07
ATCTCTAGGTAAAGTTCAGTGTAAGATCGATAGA	RARg:RXRa (NR concentration 270 nM, RXRa partner concentration 90 nM)	PBM binding z-score	2.02

Item: `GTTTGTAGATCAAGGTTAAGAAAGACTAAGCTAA` | PBM binding z-score: 0.774

Looking up `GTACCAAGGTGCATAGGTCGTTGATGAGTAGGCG` , I see its PBM binding z-score listed as 0.769

PBM binding z-score measured on `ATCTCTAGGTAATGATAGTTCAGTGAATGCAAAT` = 0.493

The sequence listed as `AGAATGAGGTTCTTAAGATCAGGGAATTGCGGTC` has a reported PBM binding z-score of -0.106

So, `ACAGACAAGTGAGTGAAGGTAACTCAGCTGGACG` ? Its PBM binding z-score was -0.0696

###

Tested on: RXRa homodimer (NR concentration 180 nM)
procedureSummary: PBM binding z-score (relative to random genomic background probes); higher = stronger binding; sequences stand for … in GC…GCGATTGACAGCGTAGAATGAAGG
Label Fulfilled when PBM binding z-score is at or above 2; anything below gets Not fulfilled.

Recorded results for 3 sequences are shown here.
chainSequence	measurementTarget	categoryLabel
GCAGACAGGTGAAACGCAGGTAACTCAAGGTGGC	RXRa homodimer (NR concentration 180 nM)	Not fulfilled
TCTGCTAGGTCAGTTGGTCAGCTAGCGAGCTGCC	RXRa homodimer (NR concentration 180 nM)	Not fulfilled
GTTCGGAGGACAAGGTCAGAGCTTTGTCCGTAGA	RXRa homodimer (NR concentration 180 nM)	Not fulfilled

Data request: Please tell me: is the sequence `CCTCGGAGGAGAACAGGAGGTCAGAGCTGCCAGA` at or over 2 in terms of PBM binding z-score?
Data returned: Not fulfilled

Data request: Check if PBM binding z-score >= 2 (inclusive). Item: `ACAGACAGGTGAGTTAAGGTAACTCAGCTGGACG`
Data returned: Not fulfilled

Data request: Could you tell me if the measured PBM binding z-score of `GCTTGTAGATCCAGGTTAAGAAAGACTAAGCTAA` reaches 2 or more?
Data returned: Not fulfilled

Data request: In plain terms: is recorded PBM binding z-score at least 2 for `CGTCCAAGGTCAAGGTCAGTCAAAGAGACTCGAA` ?
Data returned: Fulfilled

Data request: Could you please find out whether `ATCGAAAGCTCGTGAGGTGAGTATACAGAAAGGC` has PBM binding z-score that meets 2 or exceeds it?
Data returned: Not fulfilled

Data request: Entry `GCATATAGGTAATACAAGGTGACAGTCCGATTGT` : is its PBM binding z-score no less than 2?
Data returned: Not fulfilled

Data request: In plain terms: is recorded PBM binding z-score at least 2 for `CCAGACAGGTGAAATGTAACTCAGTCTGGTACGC` ?
Data returned: Not fulfilled

Data request: # check: PBM binding z-score of `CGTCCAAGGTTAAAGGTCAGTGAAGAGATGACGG` is greater than or equal to 2
Data returned: Fulfilled

Data request: // inclusive: PBM binding z-score at least 2? input: `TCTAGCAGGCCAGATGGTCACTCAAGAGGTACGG`
Data returned: Not fulfilled

Data request: Decide: PBM binding z-score of `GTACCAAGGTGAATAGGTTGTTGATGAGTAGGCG` >= 2?
Data returned: Not fulfilled

Data request: Hello, I need to know if `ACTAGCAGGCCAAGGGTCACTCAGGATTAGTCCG` has measured PBM binding z-score not below 2. Thanks!
Data returned: Fulfilled

Data request: Given the entry `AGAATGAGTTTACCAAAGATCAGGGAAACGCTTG` , answer whether its PBM binding z-score meets or surpasses 2.
Data returned: Not fulfilled

Data request: Would you say `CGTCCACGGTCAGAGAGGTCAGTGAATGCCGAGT` shows PBM binding z-score at minimum 2?
Data returned: Fulfilled

Data request: Quick check: does `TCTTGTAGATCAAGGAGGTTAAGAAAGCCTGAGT` have PBM binding z-score greater than or equal to 2?
Data returned: Not fulfilled

Data request: Answer whether PBM binding z-score of `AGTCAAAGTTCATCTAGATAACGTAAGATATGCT` is greater than or equal to 2.
Data returned: Fulfilled
